Taken from paper PMC8130932.

# Target Or Test System: T1, SARS-CoV-2 RBD (amino acids 340-538) on MDCK-SIAT1 cells (SARS-CoV-2 (so in the source))
# T1 construct: also called MDCK-RBD; source: MDCK-SIAT1, stably transduced (lentiviral vector), on the cell surface
# Assay: flow cytometry on cells
# Experimental Conditions: one partner purified
Quantity Kind: binding result

1) FI 4A (antibody, V domains shown, source: HEK293T, transfected; culture supernatant or purified) VH: EVQLVESGGGLVKPGGSLRLSCAASGFTFSRFSMNWVRQAPGKGLEWVSSISSSGSYIYFADSVKGRFTISRDNAKNSLYLQMNSLRAEDTAIYYCATYLFGDSHTYWGQGTLVTVSS VL: QSVLTQPHSVSESPGKTVTISCTGSSGSIASNYVQWYQQRPGSAPTTVIYEDNQRPSGVPDRFSGSIDSSSNSASLTISGLKTEDEADYYCQSYDSSNLHWVFGGGTKLTVL	binds
